assay: Solubility test in water (HPLC); type: physicochemical; conditions: stirred at constant temperature for 30 min
# label = Fulfilled if Solubility in water < 300 µg/mL else Not fulfilled

Previously resolved entries follow.
Cl.O=C(c1cc(Cc2n[nH]c(=O)c3ccccc23)ccc1F)N1CCN(c2ccc3[nH]cnc3n2)CC1 ... Not fulfilled
O=C(c1cc(Cc2n[nH]c(=O)c3ccccc23)ccc1F)N1CCN(c2ccc3[nH]cnc3n2)CC1.O=S(=O)(O)CCO ... Not fulfilled

Please determine if Cc1ccc(S(=O)(=O)O)cc1.O=C(c1cc(Cc2n[nH]c(=O)c3ccccc23)ccc1F)N1CCN(c2ccc3[nH]cnc3n2)CC1 is below 300 µg/mL in terms of Solubility in water.
Fulfilled

Please determine if O=C(c1cc(Cc2n[nH]c(=O)c3ccccc23)ccc1F)N1CCN(c2ccc3[nH]cnc3n2)CC1.O=S(=O)(O)c1ccccc1 is below 300 µg/mL in terms of Solubility in water.
Fulfilled
